This collection of values is drawn from patent US12264134B2.

Consider the following compounds; for each one, report its pIC50.
biological target: IDO1 (Homo sapiens, UniProt P14902); experiment: IDO1 Cellular Assay in HeLa Cells Stimulated with IFNγ; type: cell-based; conditions: read-out: HeLa Cell Potency, IC50
Sequence (P14902 whole entry): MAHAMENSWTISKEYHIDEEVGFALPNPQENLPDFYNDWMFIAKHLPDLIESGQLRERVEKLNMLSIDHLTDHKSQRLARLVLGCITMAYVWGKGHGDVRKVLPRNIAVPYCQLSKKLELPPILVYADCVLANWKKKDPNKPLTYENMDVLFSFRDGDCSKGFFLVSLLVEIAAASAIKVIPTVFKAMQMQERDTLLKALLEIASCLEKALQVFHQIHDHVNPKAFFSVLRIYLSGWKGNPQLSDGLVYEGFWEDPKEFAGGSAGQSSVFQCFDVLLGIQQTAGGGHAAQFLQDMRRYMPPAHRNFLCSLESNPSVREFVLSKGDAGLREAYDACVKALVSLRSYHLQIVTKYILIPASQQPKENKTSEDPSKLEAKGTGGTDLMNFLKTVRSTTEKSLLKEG
Kindly note that pIC50 refers to -log10 of the concentration in mol/L and answer with the value alone.

Indicate its recorded pIC50; the compound in question is Cc1cccc(N2CCN(C(=O)Cn3nc(C(=O)N4CCC5(CC4)CC(=O)N5)c4c3C[C@H]3C[C@@H]43)CC2)c1C [Example 219]
9.07

Look up pIC50 of Cc1cccc(N2CCN(C(=O)Cn3nc(C(=O)N4CCC(N5CCCC5)CC4)c4c3CCC4)CC2)c1C [Example 164] and report it.
7.16

Look up and state reported pIC50 for Cc1c(Cl)cccc1N1CCN(C(=O)Cn2nc(C(=O)N3CCN(C(=O)CO)CC3)c3c2C[C@H]2C[C@@H]32)CC1 [Example 352]
8.93

Provide one value: measured pIC50 of Cc1cc(F)cc(N2CCN(C(=O)Cn3nc(C(=O)N4C[C@@H](C)O[C@@H](C)C4)c4c3CCC4)CC2)c1 [Example 41]
6.61

Report pIC50 for Cc1cccc(N2CCN(C(=O)Cn3nc(C(=O)N4C[C@@H](C)O[C@@H](C)C4)c4c3CC[C@@H](C(F)(F)F)C4)CC2)c1C [Example 295]
8.17

Look up pIC50 of Cc1cccc(N2CCN(C(=O)Cn3nc(C(=O)N4CC[C@@H](O)[C@@H](F)C4)c4c3C(O)CC4)CC2)c1C (mixture of isomers) [Example 421] and report it.
6.16

Retrieve pIC50 measured for Cc1c(F)ccc(N2CCN(C(=O)Cn3nc(C(=O)N4CCC(O)(CO)CC4)c4c3C[C@H]3C[C@@H]43)C3(CC3)C2)c1C [Example 323] and print it.
9.16

Supply recorded pIC50 for Cc1cccc(N2CCN(C(=O)Cn3nc(C(=O)N4CCC(n5cncn5)CC4)c4c3CCC4)CC2)c1C [Example 132] here.
8.34

Kindly indicate its recorded pIC50. Item: Cc1cccc(N2CCN(C(=O)Cn3nc(C(=O)N4CCCC4)c4c3CCOC4)CC2)c1C [Example 4]
6.78

Read off the recorded pIC50 for Cc1cccc(N2CCN(C(=O)Cn3nc(C(=O)N4CCCC(N(C)C)C4)c4c3CCC4)CC2)c1C (stereo not shown) [Example 186]
7.42

For the compound Cc1cccc(N2CCN(C(=O)Cn3nc(C(=O)N4CCC(NC(=O)OC(C)(C)C)CC4)c4c3CCCC4)CC2)c1C [Example 469] , give its measured pIC50 value.
8.61

Note down pIC50 recorded for Cc1cccc(N2CCN(C(=O)Cn3nc(C(=O)N4CCC(O)C5CCCCC54)c4c3CCC4)CC2)c1C (stereo not shown) [Example 112]
8.44

Answer with reported pIC50 of Cc1cccc(N2CCN(C(=O)Cn3nc(C(=O)N4CCN5CCOC[C@@H]5C4)c4c3CCC4)CC2)c1C [Example 174]
8.43

Give reported pIC50 value for Cc1cccc(N2CCN(C(=O)Cn3nc(C(=O)N4CCC(F)(CO)CC4)c4c3CCCC4)CC2)c1C [Example 467]
8.73

Please look at this compound and report its pIC50: Cc1cccc(N2CCN(C(=O)Cn3nc(C(=O)N4CCO[C@H](CO)C4)c4c3CCCC4)CC2)c1C [Example 474]
8.38

Name the recorded pIC50 of the item Cc1c(F)ccc(N2CCN(C(=O)Cn3nc(C(=O)N4CCC(F)(CO)CC4)c4c3CCCC4)CC2)c1C [Example 458] in your answer.
9.02

Give a short answer stating reported pIC50 for Cc1cccc(N2CCN(C(=O)Cn3nc(C(=O)N4CCC5(CCOC5)CC4)c4c3CCC4)CC2)c1C [Example 93] .
8.51

Quote pIC50 reported for Cc1cccc(N2CCN(C(=O)Cn3nc(C(=O)N4CC[C@H](O)[C@H](F)C4)c4c3CCC4C(F)F)CC2)c1C (single isomer, unassigned) [Example 14] please.
7.36

Tell me measured pIC50 for Cc1cccc(N2CCN(C(=O)Cn3nc(C(=O)N4CC[C@H](O)[C@H](C)C4)c4c3CCC4)CC2)c1C [Example 99] please.
8.50

Kindly indicate its recorded pIC50. Item: Cc1c(F)ccc(N2CCN(C(=O)Cn3nc(C(=O)N4CC[C@@H](O)[C@@H](F)C4)c4c3CCCC4)CC2)c1C [Example 462]
8.88

Answer with the recorded pIC50 of Cc1cccc(N2CCN(C(=O)Cn3nc(C(=O)N4CC[C@H](O)[C@@H](C)C4)c4c3CCC4)CC2)c1C [Example 109] only.
8.73

# return recorded pIC50 for input Cc1c(Cl)cccc1N1CCN(C(=O)Cn2nc(C(=O)N3CCC(NCCO)CC3)c3c2C[C@H]2C[C@@H]32)C2(CC2)C1 [Example 313]
7.17

Specify pIC50 for Cc1cccc(N2CCN(C(=O)Cn3nc(C(=O)N4CC[C@@H](C#N)C4)c4c3C[C@H]3C[C@@H]43)CC2)c1C [Example 223] and stop.
8.83

Quickly give me recorded pIC50 for Cc1cccc(N2CCN(C(=O)Cn3nc(C(=O)N4CCC(O)(CO)CC4)c4c3CCC4)CC2)c1C [Example 141]
7.95

Output pIC50 of Cc1c(Cl)cccc1N1CCN(C(=O)Cn2nc(C(=O)N3CCC(O)CC3)c3c2C(F)(F)[C@H]2C[C@@H]32)CC1 [Example 448]
8.45

Specify measured pIC50 for Cc1cccc(N2CCN(C(=O)Cn3nc(C(=O)N4CCC(O)C(F)C4)c4c3CCC4)C3(CC3)C2)c1C (single isomer, unassigned) [Example 394] .
8.14

Identify the reported pIC50 for the following entry. Cc1cccc(N2CCN(C(=O)Cn3nc(C(=O)N4CCCC(O)CC4)c4c3CCC4)CC2)c1C (stereo not shown) [Example 118]
7.86

Identify pIC50 associated with the compound Cc1cccc(N2CCN(C(=O)Cn3nc(C(=O)N4CCC(=O)N(C)CC4)c4c3CCC4)CC2)c1C [Example 84]
7.81
